Attribution: patent US9428815B2

tested on: HIVs68Δ-23 (S68del virus isolated at week 23); assay: 3H-TTP RT incorporation assay, drug susceptibility of in vitro-selected S68del virus in human PBM cells; format: cell-based, HIV-1; conditions: Human immunodeficiency virus 1, PBMC; HIVs68Δ-23 in human PBM cells; averages of 2-6 independent experiments
MEASUREMENT TYPE: EC50 (nM)
Give your result in nM as a bare value.

// known answers, use as guide
# COMPOUND, UOM, EC50
records = [
    ("O=C1Nc2ccc(Cl)cc2[C@@](C#CC2CC2)(C(F)(F)F)O1 [Sustiva]", "nM", 0.39),
    ("Cc1cn([C@H]2C=C[C@@H](CO)O2)c(=O)[nH]c1=O [D4T, 2′,3′-dideoxy-2′,3′-didehydrothymidine]", "nM", 410),
    ("Nc1nc(=O)n([C@H]2C=C[C@@H](CO)O2)cc1F [DFC]", "nM", 1100),
    ("Nc1nc(N)c2ncn([C@H]3CO[C@@H](CO)O3)c2n1 [DAPD, (−)-beta-D-2,6-diaminopurine dioxolane]", "nM", 7900),
]

Indicate its recorded EC50; the compound in question is Nc1ccn([C@@H]2CS[C@H](CO)O2)c(=O)n1 [3TC]
880
